Molecular target: human KCNK13 (Homo sapiens)
Sequence (Q9HB14 whole entry): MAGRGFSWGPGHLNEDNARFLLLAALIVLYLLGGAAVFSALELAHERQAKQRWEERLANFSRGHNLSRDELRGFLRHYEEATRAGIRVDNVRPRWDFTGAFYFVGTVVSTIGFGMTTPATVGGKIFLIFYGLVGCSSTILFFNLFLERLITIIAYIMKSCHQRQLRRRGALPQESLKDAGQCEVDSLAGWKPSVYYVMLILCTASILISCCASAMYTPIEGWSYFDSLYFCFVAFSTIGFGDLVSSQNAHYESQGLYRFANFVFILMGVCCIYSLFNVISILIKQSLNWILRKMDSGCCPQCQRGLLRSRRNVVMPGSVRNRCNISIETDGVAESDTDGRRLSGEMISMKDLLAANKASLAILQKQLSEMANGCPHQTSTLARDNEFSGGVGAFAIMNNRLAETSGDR
Assay: KCNK13 antagonist activity, thallium flux FLIPR assay in HEK 293 cells stably expressing human KCNK13
Details: HEK 293 cells stably expressing human KCNK13, Tl+ sensitive dye, compound 15 min before thallium sulfate, ten point curves; read-out: hKCNK13 IC50
Quick list: IC50 per entry.

{"columns": ["compound", "systemName", "reportedValue"],
 "data": [
  ["CC(c1ccccc1F)N(C)C(=O)c1cc(F)cnc1OC(F)F (single isomer, unassigned) [Example 70]", "human KCNK13 (Homo sapiens)", "≤ 200 nM"]
]}

Supply IC50 value. Item: CN(Cc1cccc(F)c1)S(=O)(=O)c1cc(F)cnc1OC(F)F
≤ 100 nM

Return the recorded IC50 value; entry: COc1ncc(Cl)cc1C(=O)N(C)Cc1ccc(F)cc1C#N
≤ 200 nM

Dear colleague, please send me the reported IC50 for CCN(Cc1ccccc1)C(=O)c1cc(Cl)cnc1OC when you can.
≤ 1000 nM

Provide measured IC50 value, entry: O=S(=O)(c1cc(F)cnc1OC(F)F)N1CCc2ccccc2C1
≤ 100 nM

Give the reported value of IC50 for this record: COc1ncc(F)cc1C(=O)N(C)C1CCc2ccc(F)cc21 (single isomer, unassigned) [Example 9]
≤ 1000 nM

State, in one line, measured IC50 of COc1ncc(F)cc1C(=O)N(C)Cc1ccccc1F
≤ 200 nM

Supply IC50 value. Item: CN(Cc1cccc(F)c1F)C(=O)c1cc(F)cnc1OC(F)F
≤ 100 nM

For the compound CN(Cc1cccc(C#N)c1)C(=O)c1cc(Cl)cnc1OC(F)F , report IC50.
≤ 500 nM

Look up and state reported IC50 for COc1ncc(F)cc1C(=O)N(C)C1CCOc2c(F)cccc21 (single isomer, unassigned) [Example 30]
≤ 500 nM

Recorded values, source patent US20260167632A1.
